targetOfAssay: T1, recombinant, soluble human ASGR-1 (human, UniProt P07306 62-291)
T1 construct: biotinylated in the binning assay; also called soluble huASGR-1; Soluble ASGR-1 (Amgen)
T1 sequence: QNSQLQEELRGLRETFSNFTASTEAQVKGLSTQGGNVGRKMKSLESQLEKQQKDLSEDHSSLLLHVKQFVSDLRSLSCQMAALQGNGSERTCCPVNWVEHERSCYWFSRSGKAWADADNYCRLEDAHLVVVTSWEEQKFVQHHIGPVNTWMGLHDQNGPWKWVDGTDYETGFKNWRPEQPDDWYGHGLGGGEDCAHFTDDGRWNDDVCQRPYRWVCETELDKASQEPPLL
experimentNotes: Octet BLI dissociation, pH 5.6 minus calcium
This section presents binders with their documented % Change Compared to pH 7.4 + Calcium values.
Report only the number, with the unit % understood.

Here are 3 binders together with their reported answers.
binder="190H9 (antibody, V domains shown, hybridoma mAb) VH: QVQLVESGGGVVQPGRSLRLSCAASGFTFRNYGMHWVRQAPGKGLEWVAVIWFDGSNDYYADSVKGRFTISRDNSKNTLSLQMNSLRAEDTAVYYCARDRSVGYDGLDVWGQGTTVTVSS VL: DIQMTQSPSSLSASVGDRVTITCRASQGIGKYLAWFQQKPGKALKSLIYAASSLQSGVPSKFSGSGSGTDFTLTISSLQPDDFATYYCQRYDTYPFTFGPGTKVDIK" testresult=-7
binder="194C10 (antibody, V domains shown, hybridoma mAb) VH: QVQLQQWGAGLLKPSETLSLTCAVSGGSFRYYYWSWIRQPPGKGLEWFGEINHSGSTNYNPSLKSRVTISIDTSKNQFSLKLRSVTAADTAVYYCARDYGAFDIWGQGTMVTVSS VL: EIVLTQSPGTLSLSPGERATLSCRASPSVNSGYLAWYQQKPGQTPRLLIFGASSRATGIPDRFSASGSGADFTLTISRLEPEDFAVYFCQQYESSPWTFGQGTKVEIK" testresult=16
binder="192G6 (antibody, V domains shown, hybridoma mAb) VH: QVQLVESGGGVVQPGRSLRLSCAASGFTFSSYGMHWVRQAPGKGLEWVAVLWYDGTNKNYADSVKGRFTISRDNSKNTLYLQMNSLRAEDTAVYYCARDQGVGYDGLDVWGQGTTVTVSS VL: DIKMTQSPSSLSASVGDRVTITCRTSQGIGNYLAWFQQKPGKAPKSLLYKASSLQSGVPSKFSGSGSGTDFTLTISSLQPEDFATYYCQQYMTYPLTFGGGTKVEIK" testresult=-6

Request: Report % Change Compared to pH 7.4 + Calcium for 184E7 (antibody, V domains shown, hybridoma mAb) VH: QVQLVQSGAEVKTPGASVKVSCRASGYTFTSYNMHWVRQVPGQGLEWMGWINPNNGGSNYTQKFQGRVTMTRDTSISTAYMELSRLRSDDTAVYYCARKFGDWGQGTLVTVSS VL: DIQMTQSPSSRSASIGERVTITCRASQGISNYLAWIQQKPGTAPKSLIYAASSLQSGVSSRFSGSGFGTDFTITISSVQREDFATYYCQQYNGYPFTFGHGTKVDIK please.
Response: -3

Request: Endpoint output: % Change Compared to pH 7.4 + Calcium of 51E9 (antibody, V domains shown, hybridoma mAb) VH: QVQLVQSGAEVKKPGASVKVSCKASRYTFTGYHIHWVRQAPGQGLEWMGWINPNTNGTQYAQKFQGRVTMTRDTSISTAYMELSRLRSDDTAVYYCARDGTSSFDYWGQGTLVTVSS VL: DIQMTQSPSSVSASVGDRVTITCRASQGISSWLAWYQQKPGKAPKLLIYVASSLQSGVPSRFSGSGSGTDFTLTIRSLQPEDFATYYCQQAKSFPFTFGPGTKVDIK . Value?
Response: 2

Request: Find the recorded % Change Compared to pH 7.4 + Calcium belonging to 64B12 (antibody, V domains shown, hybridoma mAb) VH: QLQLQESGPGLVKPSETLSLTCTVSGVSISRSSYYWGWIRQPPGKGLEWIGSIYYSGSTSYNPSLKSRVTISVDTSKNQFSLKLSSVTAADTAVYYCARLDSGWSFDYWGQGTLVTVSS VL: DIQMTQSPSSLSASVGDRVTITCRASQDISNYLNWYQQKPGTAPNLLISDASILETGVPSTFSGSGSGTDFTFTISSLQPEDIATYYCQQSDNLPCSFGQGTKVEIK and report it.
Response: 7

Request: Query: % Change Compared to pH 7.4 + Calcium; subject: 190C11 (antibody, V domains shown, hybridoma mAb) VH: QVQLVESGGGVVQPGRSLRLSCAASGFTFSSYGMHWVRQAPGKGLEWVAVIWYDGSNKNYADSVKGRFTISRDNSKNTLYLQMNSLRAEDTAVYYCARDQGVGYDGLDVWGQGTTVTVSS VL: DIQMTQSPSSLSASVGDRVTITCRTSQGIGNYLAWFQQKPGKAPKSLLYKTSSLQSGVPSKFSGSGSGTDFTLTISSLQPEDFATYYCQQYMTYPLTFGGGTKVEIK
Response: -6

Request: What value of measured % Change Compared to pH 7.4 + Calcium is listed for 4H6 (antibody, V domains shown, hybridoma mAb) VH: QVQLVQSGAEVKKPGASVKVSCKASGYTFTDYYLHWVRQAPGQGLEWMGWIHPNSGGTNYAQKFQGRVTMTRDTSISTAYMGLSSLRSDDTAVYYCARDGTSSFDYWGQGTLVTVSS VL: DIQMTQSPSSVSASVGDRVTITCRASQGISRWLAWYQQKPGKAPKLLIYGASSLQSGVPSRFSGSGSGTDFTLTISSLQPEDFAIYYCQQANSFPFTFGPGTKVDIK ?
Response: 2

Request: Form field: reported % Change Compared to pH 7.4 + Calcium of 191G12 (antibody, V domains shown, hybridoma mAb) VH: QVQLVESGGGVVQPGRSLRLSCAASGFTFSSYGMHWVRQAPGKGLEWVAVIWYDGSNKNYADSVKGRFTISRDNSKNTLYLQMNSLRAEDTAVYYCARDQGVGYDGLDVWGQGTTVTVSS VL: DIQMTQSPSSLSASVGDRVTITCRTSQGIGNYLAWFQQKPGKAPKSLLYKASSLQSGVPSKFSGSGSGTDFTLTISSLQPEDFATYYCQQYITYPLTFGGGSKVEIK
Response: -6

Request: What does the data say about its % Change Compared to pH 7.4 + Calcium? Entry: 179C2 (antibody, V domains shown, hybridoma mAb) VH: QVQLVESGGGVVQPGRSLRLSCAASGFTFSSYGMHWVRQAPGKGLEWVALIFYDGSNKYYADSVKGRFTISRDNSKNTLFLQMNSLRAEDTAVYYCARRYSGSWSGGMDVWGQGTTVTVSS VL: DIVMTQTPLSLSVTPGQPASISCKSSQSLLHSEGKTYLYWYLQKPGQPPQLLIYEVSHRFSGVPDRFSGSGSGTDFTLKISRVEAEDVGVYYCMQSIQVLTFGGGTKVEIK
Response: 45
